// data source = paper PMC9482650

Measured pKd of individual entries
# measured_on: PTPN3, P26045
# Sequence (P26045 505-587): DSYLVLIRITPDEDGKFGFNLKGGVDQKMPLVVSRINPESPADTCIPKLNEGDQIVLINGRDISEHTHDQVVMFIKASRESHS
# measurement_notes: holdup assay
# Set-up: key: below the threshold = too weak to quantify, mostly under pKd 3.1 to 4
# condition_details: plain residues with an end cap or a label only (N-terminal biotin on a linker: ttds)

# binder, pKd
data = [
    ("IDNDTESTAL [ARHGAP17, Q68EM7]", 4.76),
    ("GQDSREETQL [KCNT2, Q6UVM3]", 4.9),
    ("TVASEKESVM [SLC1A5, Q15758]", 4.94),
    ("SVWLRKETRV [CYSLTR2, Q9NS75]", 4.68),
    ("PKTPPTDTSV [KIR3DL3, Q8N743]", 4.48),
    ("SSRTRRETQL [HPV16-E6, P03126]", 5.06),
    ("ERKLSSESQV [LRP4, O75096]", 4.61),
    ("IYVPEAQTRL [DLGAP4, Q9Y2H0]", 4.38),
    ("VLRLQSETSV [VANGL1, Q8TAA9]", 4.97),
    ("STLTIFETAL [ABCC4, O15439]", 5.11),
    ("SRPQRTQTQV [HPV67-E6, A4U7F2]", 3.95),
    ("QSARYRDTEL [TJP2, Q9UDY2]", 4.98),
    ("RSLEEEESQL [GRASP, Q7Z6J2]", 4.83),
]
